Assay: aqueous solubility
Type: physicochemical
Conditions: aqueous environment, water; aqueous environments; about 22° C. unless otherwise specified
MEASURE: solubility

Lookup: Using known records, supply solubility for `CCOC(=O)N1c2ccc(C(F)(F)F)cc2[C@@H](N(Cc2cc(C(F)(F)F)cc(C(F)(F)F)c2)C(=O)OC)C[C@H]1CC`
Found: < 0.04 µg/mL
